Cited source: patent US20260258115A1

- target or system: RSV prefusion F (preF), subtype B (respiratory syncytial virus, subtype B)
- experimental details: BLI, IgG
pKd: −log10 of the molar value.
// no (0) strictly below 9 in pKd; yes (1) otherwise

binder: ADI-20978 (antibody, V domains shown) VH: EVQLVESGAEVKKPGASVKVSCKASGYTFGNYGISWVRQAPGQGLEWMGWISAYNGNSNYAQKFQGRVTMTTDTSASTAYMEVRSLRSDDTAVYYCARDVPVTAARLLDYWGQGTLVTVSS VL: DIVLTQTPLSLPVTLGQPASISCRSSQSLVYSDGNTYLSWFQQRPGQSPRRLIYKVSNRDSGVPDRFSGSGSGTDFTLKISRVEAEDVGVYYCMQATDWLGYTFGQGTKLEIK
label: yes (1)
--
binder: ADI-20963 (antibody, V domains shown) VH: EVQLVESGGGLAKPGGSLRLSCAASGFTFSHYNMNWVRQAPGKGLEWVSSISSTGFHIYYADSVKGRFVISRDNAENSLHLQMNSLRADDTGLYYCVRAEYYYGSGSAGHYFDSWGQGTLVTVSS VL: SYVLTQPPSVSVAPGHTAKITCGGSIIGTKSVHWYQQKPGQAPVLVVYDDSDRPSGIPERLSGSRSGNTATLTITRVEAGDEADYYCQVWDSSSEHAGVFGGGTKLTVL
label: no (0)
--
binder: ADI-14399 (antibody, V domains shown, also called Ab 65) VH: EVQLLESGPGLVKPSQTLSLTCAVSGGSINSGRYSWSWIRQPPGKGLEWIGYIYYSGTTYYNPSLESRVTISRDTSKNQFSLNLSSVTAADTAVYYCARTNSADSYASGSHYIRPQYFDFWGQGTLVTVSS VL: DIQLTQSPATLSLSPGERATLSCRASQSVSSYLAWYQQKPGQAPRLLIYGASNRATGIPARFSGSGSGTDFTLTISRLEPEDFAVYYCQQRSNWLTFGGGTKVEIK
label: yes (1)
--
binder: ADI-14393 (antibody, V domains shown, also called Ab 60) VH: QVQLVESGGGLVKPGGSLRLSCAASGFSFTGFYMNWVRQAPGKGLEWVSSISSSSTYKNYADSLQGRFTISRDNARSSLYLQMNSLRAEDTAVYYCARTRTEYTYGYYHDFWGQGTLVTVSS VL: QPVLTQPPSVSGAPGQRVTISCTGSSSNIGAGYDVHWYQQVPGTAPKLLIYNNNNRPSGVPDRFSGSKSGTSASLAITGLQAEDEADYYCQSYDSRLSGVFGGGTKLTVL
label: yes (1)
--
binder: ADI-20989 (antibody, V domains shown) VH: EVQLLESGPGLVKPSGTLSLTCAVSGGSIINSNWWSWVRQSPGKGLEWIGDIYHSGSTTYNPSLKSRVTISVDRSKNQYSLRLTSVTAADTAVYYCAKIGPDNRSGPDYYYFMDVWGKGTTVTVSS VL: EIVLTQSPSSLPASVGDRVTISCRASQSISNYVYWYQQKPGKAPKLLIYAASSLQSGVPSRFSGSGSGTDFTLSISSLQFEDFATYFCQQSYSTPPTFGQGTKLEIK
label: no (0)
